# testedSystem: T1, Recombinant soluble extracellular domain of human MerTK (human, UniProt Q12866 21-505)
# T1 construct: SPR analyte; also called hMerTK
# T1 sequence: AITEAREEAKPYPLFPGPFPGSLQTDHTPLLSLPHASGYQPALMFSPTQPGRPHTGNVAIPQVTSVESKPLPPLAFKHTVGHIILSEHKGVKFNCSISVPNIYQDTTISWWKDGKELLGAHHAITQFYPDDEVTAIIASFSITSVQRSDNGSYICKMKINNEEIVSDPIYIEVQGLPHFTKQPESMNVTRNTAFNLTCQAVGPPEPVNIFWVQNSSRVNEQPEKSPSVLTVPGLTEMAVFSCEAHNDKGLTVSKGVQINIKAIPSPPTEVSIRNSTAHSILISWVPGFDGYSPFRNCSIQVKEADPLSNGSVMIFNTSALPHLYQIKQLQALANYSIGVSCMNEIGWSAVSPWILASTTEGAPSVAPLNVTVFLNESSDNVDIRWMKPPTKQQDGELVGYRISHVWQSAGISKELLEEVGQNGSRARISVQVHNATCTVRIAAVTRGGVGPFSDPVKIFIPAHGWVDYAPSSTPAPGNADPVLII
# testName: SPR, mAb captured, soluble MerTK ECD as analyte, 37 C
readoutType: t1/2 (min)
Enter your answer as a number in min; do not include the unit.

Incoming: What value of measured t1/2 is listed for HuMAb 1B4 (antibody, human IgG1, kappa, V domains shown, Human anti-hMerTK mAb, Bin 1) VH: QLQLQESGPGLVKPSETLSLTCAVSGYSISSGNYWGWIRQSPGKGLEWIGSVDHSGSTYYSPSLKSRVTISVDTSKNQFSLKLNSVTAADTADYYCARNTMIRGVMDWFDPWGQGTLVTVSS VL: AIQLTQSPSSLSASVGDRVTITCRASQGISSALAWYQQKPGKAPKVLIYDASSLESGVPSRFSGSGSGTDFTLTISSLQPEDFATYYCQQFRSYPTFGQGTKVEIKR ?
Outgoing: 1.4

Incoming: Lookup HuMAb 10K11 (antibody, human IgG1, kappa, V domains shown, Human anti-hMerTK mAb, Bin 1) VH: QLQLQESGPGLVKPSETLSLTCAVSGYSISSDYSWGWIRQPPGKGLEWIGSIYHSGNTYFNPSLKSRVTISVDTSKNQFSLKLSSVTAADTAVYYCARDKSYYFGPGSMDVWGQGTTVTVSS VL: AIQLTQSPSSLSASVGDRVTITCRASQGISSALAWYQQKPGKAPKLLIYDASSLESGVPSRFSGSGSGTDFTLTISSLQPEDFATYYCQQFKSYLTFGQGTRLEIKR
Outgoing: 9.9

Incoming: Lookup Humanized mAb 4M60 (antibody, human IgG1, kappa, V domains shown, Humanized variant of moMAb 4E9, Bin 2) VH: QVQLVQSGSELKKPGASVKVSCKASGNTFTTYGMSWVRQAPGQGLEWMGWINNYSGVSTYADDFKGRFVFSLDTSVSTAYLQISSLKAEDTAVYYCARDYYGSGGWVFDYWGQGTTVTVSS VL: DVVMTQSPLSLPVTLGQPASISCKSSQSLLDSEGKTYLNWLQQRPGQSPRRLMYLVSKLDSGVPDRFSGSGSGTDFTLKISRVEAEDVGVYYCWQGTHFPRTFGGGTKVEIKR
Outgoing: 8.6

Provenance of the data: patent US20210395392A1
